Tested on: MDA-MB-231 breast
Assay: NCI-60 one-dose screen, 48 h
Settings: 10 µM unless noted
This is part of a sample that, as a whole, favours compounds with a hit. Of some 83,000 tested, about 20% had one in any assay. The source made the active and inactive calls. Rule for the calls: active = growth percent below 10; inactive = the rest.
Respond only with the outcome that fits, drawn from TRUE for active, FALSE for inactive

What outcome does the record of this test show for `CCN1CCN(C(=O)[C@]23CC[C@@H](C)[C@H](C)[C@@H]2C2=CC[C@@H]4[C@@]5(C)C/C(=C/c6cccnc6)C(=O)C(C)(C)[C@@H]5CC[C@@]4(C)[C@]2(C)CC3)CC1` ?
FALSE

What outcome does the record of this test show for `O=C1c2ccccc2C(=O)C1c1ccc(Br)cc1` ?
FALSE

What outcome does the record of this test show for `CCOC(=O)c1[nH]c2c(c1C)-c1[nH]c(=O)c(S(=O)(=O)c3ccccc3)cc1SC2` ?
FALSE

What outcome does the record of this test show for `CCN1C2CCC1/C(=C\c1ccc(F)cc1)C(=O)/C2=C/c1ccc(F)cc1` ?
FALSE

What outcome does the record of this test show for `CN(Cc1cc(Br)cc(Br)c1O)Cc1cc(Br)cc(Br)c1O` ?
FALSE

What outcome does the record of this test show for CC1=C(C(=O)Nc2ccccc2)C(c2ccc3c(c2)OCO3)NC(=S)N1 (centres undefined) ?
FALSE

What outcome does the record of this test show for `Cc1ccc(S(=O)(=O)Oc2ccc3sc4cccc(NCCN(C)C)c4c(=O)c3c2)cc1` ?
TRUE

What outcome does the record of this test show for `CC(C)(C)n1cc(-c2ccnc(NCCNS(=O)(=O)c3ccc(O)cc3)c2)c(-c2cccc(O)c2)n1` ?
FALSE

What outcome does the record of this test show for `CCN(CC)CCN1C(=O)c2c(c(C)c3c(oc4ccc(O)cc43)c2C)C1=O` ?
TRUE

What outcome does the record of this test show for `COc1ccc(C(=O)Cn2c(C(=O)c3ccc(Cl)cc3)nc3ccccc32)cc1` ?
FALSE

What outcome does the record of this test show for `S=C(c1ccc2c(c1)OCO2)N1CCN(c2cccc(Cl)c2)CC1` ?
FALSE

What outcome does the record of this test show for `COc1ccc(-c2cc(-c3ccccc3)nc(N3CCN(CCNc4ccnc5cc(Cl)ccc45)CC3)n2)cc1` ?
TRUE

What outcome does the record of this test show for COc1ccc(CCN2C(=O)/C(=C/c3ccc(C4Oc5ccccc5C5CC(c6ccccc6)=NN54)cc3)SC2=S)cc1 (centres undefined) ?
FALSE

What outcome does the record of this test show for `O=c1nc(-c2ccccc2)c2cc(-c3ccc(C(F)(F)F)nc3)ccc2[nH]1` ?
FALSE

What outcome does the record of this test show for `COc1cccc(-c2cc(-c3cccc(Cl)c3)c(C#N)c(=O)[nH]2)c1` ?
FALSE

What outcome does the record of this test show for `Cc1ccc(-c2nc(SCc3nc4cc(Cl)c(Cl)cc4[nH]3)[nH]c(=O)c2C#N)cc1` ?
FALSE

What outcome does the record of this test show for `NC1=Nc2cc(OCCCCN3Cc4ccccc4C3)c(OCC3CC3)cc2C12CCCC2` ?
FALSE

What outcome does the record of this test show for `O=C(N/N=C\c1ccccc1S(=O)(=O)O)N/N=C/c1ccccc1S(=O)(=O)O` ?
FALSE

What outcome does the record of this test show for `CS(=O)(=O)Nc1cc(-c2ccc3ncc(C#N)c(Nc4ccc(F)c(Cl)c4)c3c2)cnc1Cl` ?
TRUE
